- System: BT-549 breast
- assayMethodText: NCI tumour cell line growth inhibition, 48 h
reportedProperty: TGI

molecule: CC(=O)OC(C)c1cc2c(s1)C(=O)c1c(C(C)OC(C)=O)csc1C2=O (centres undefined)
reading: 3.83 µM
--
molecule: Cn1cnc2c(F)c(Nc3ccc(Br)cc3F)c(C(=O)NOCCO)cc21
reading: > 100 µM
--
molecule: CCOC(=O)C(=CN1CCNC1=S)C(=O)OCC
reading: > 100 µM
--
molecule: COc1c(Cl)ccc2c(-c3nc4cc(Cl)c(F)cc4s3)cc(=O)oc12
reading: 37.5 µM
--
molecule: COc1cc2c(cc1OC)[C@@](C)(C(O)C(O)C(C)(C)O)NCC2 (some centres undefined)
reading: > 100 µM
--
molecule: NC(CC(O)(c1ccccc1)c1ccccc1)c1ccccc1S (centres undefined)
reading: 27.8 µM
--
molecule: Cc1cc(C)c(S(=O)(=O)N(CCc2cccc(Br)c2)Cc2ccc(-c3cccc(S(C)(=O)=O)c3)cc2)c(C)c1
reading: > 100 µM
--
molecule: Cc1cc2oc(C)c(S(=O)(=O)NC(=O)Nc3ccc(Cl)cc3)c(=O)c2c(=O)o1
reading: > 100 µM
--
molecule: O=C(c1ccc(O)c([N+](=O)[O-])c1)c1ccc(O)c([N+](=O)[O-])c1
reading: > 100 µM
--
molecule: Nc1cc(S(N)(=O)=O)ccc1SSc1ccc(S(N)(=O)=O)cc1N
reading: > 100 µM
--
molecule: CNC1=C(C(=O)OC)SC(c2ccccc2)(c2ccccc2)SC1
reading: > 100 µM
--
molecule: COc1ccc(N=C2C(=Nc3ccc(OC)cc3)N(c3ccc(N(C)C)cc3)C(=S)N2c2ccc(OC)cc2)cc1
reading: > 100 µM
--
molecule: COc1ccc(C2SCC(=O)N2NC(=O)C(C)Oc2ccccc2C)cc1 (centres undefined)
reading: > 100 µM
--
molecule: CCCC(=O)NC(Nc1ccc(F)cc1)(C(F)(F)F)C(F)(F)F
reading: > 100 µM

---

- System: ACHN renal
- assayMethodText: NCI tumour cell line growth inhibition, 48 h
reportedProperty: TGI

compound: CC1CCCc2c1c1ccc3c(O)cccc3c1oc2=O (configuration not stated)
reportedProperty: TGI
reading: > 100 µM
--
compound: CC1=CCC[C@H]2[C@](C)(CC3=CC(=O)C(Sc4ccccc4)=CC3=O)[C@@H](C)CC[C@]12C
reportedProperty: TGI
reading: 35.3 µM
--
compound: Nc1nccc2c1ncn2C1OC(CO)C(O)C1O (configuration not stated)
reportedProperty: TGI
reading: > 100 µM
--
compound: CCN(CC)CCOc1ccc(C(O)(Cc2ccc(OC)cc2)c2ccccc2)cc1 (configuration not stated)
reportedProperty: TGI
reading: 65.3 µM
--
compound: CC1[C@@H]2CC=C3[C@H]4CCC5Cc6nc7c(nc6C[C@@]5(C)C4(O)CC(=O)[C@]32CO[C@]12OC(C)(C)CC2O)CC1CC[C@@H]2C3=C[C@H]4O[C@@]5(O[C@@](C)(CO)C[C@@H]5O)C(C)[C@@]4(O)[C@]3(C)[C@@H](O)CC2[C@]1(C)C7 (some centres not stated)
reportedProperty: TGI
reading: 0.381 µM
--
compound: COC(=O)c1ccccc1C1=C([N+](=O)[O-])C(c2ccccc2)C(C#N)=C(N)O1 (configuration not stated)
reportedProperty: TGI
reading: > 100 µM
--
compound: CS/C(c1ccccc1)=[N+](\[O-])Cc1ccccc1
reportedProperty: TGI
reading: > 100 µM
--
compound: CC(C)C[C@H](NC(=O)[C@H](Cc1cccc2ccccc12)NS(=O)(=O)c1cccc2cccnc12)B(O)O
reportedProperty: TGI
reading: > 38.8 µM
--
compound: COc1cc(/C=C\c2ccc(Br)cc2)cc(OC)c1OC
reportedProperty: TGI
reading: > 100 µM
--
compound: Cc1ccc(S(=O)(=O)N/N=C2/CCC(C(C)(C)C)CC2Br)cc1 (configuration not stated)
reportedProperty: TGI
reading: > 100 µM
--
compound: CCOc1nccc2c1nc(-c1nonc1N)n2CC
reportedProperty: TGI
reading: > 25 µM
--
compound: COc1cc(F)c(/C=C/c2cc(/C=C/c3cc(OC)c(OC)cc3F)n(-c3cc(F)cc(F)c3)n2)cc1OC
reportedProperty: TGI
reading: 46.2 µM

---

- Test system: HCC-2998 colon
- assayMethodText: NCI tumour cell line growth inhibition, 48 h; in the data active means GI50 below about 0.43 µM; inactive means the rest
Outcomes: True = active, False = inactive

compound: Nc1nccc2c1ncn2C1OC(CO)C(O)C1O (stereo unspecified)
labelValue: False

compound: CC(C)C[C@H](NC(=O)[C@H](Cc1cccc2ccccc12)NS(=O)(=O)c1cccc2cccnc12)B(O)O
labelValue: True

compound: COc1cccc(CCC(=O)c2cc3c(N)c(C(=O)Nc4cccc(Cl)c4C)sc3nc2C)c1
labelValue: False

compound: Cc1ncc(C(=O)Nc2ccc(CN3CCN(C)CC3)c(C(F)(F)F)c2)cc1C#Cc1c(N)ncc2ccccc12
labelValue: False

compound: Cc1cc(N(CCCNc2ccnc3cc(Cl)ccc23)Cc2ccc3c(c2)OCO3)nc(N2CCCCC2)n1
labelValue: False

compound: NS(=O)(=O)c1ccc(-n2ncc3c(Nc4ccccc4)ncnc32)cc1
labelValue: False

---

The entries below are paired with their reported TGI.
- Tested on: SF-268 CNS
- assayMethodText: NCI tumour cell line growth inhibition, 48 h

molecule: COc1cc(C2CC(=O)Nc3c2ccc2ccccc32)cc(Br)c1OC (configuration not stated)
TGI: > 100 µM

molecule: CCOc1nccc2c1nc(-c1nonc1N)n2CC
TGI: > 25 µM

molecule: COC(=O)c1ccccc1C1=C([N+](=O)[O-])C(c2ccccc2)C(C#N)=C(N)O1 (configuration not stated)
TGI: > 100 µM

molecule: Cc1ccc(C2=C(c3ccc(C)cc3)C(c3ccc(C)cc3)=C(c3ccc(C)cc3)C2=O)cc1
TGI: > 100 µM

molecule: CCOC(=O)C(C(=O)OCC)C(=O)c1ccccc1C(=O)c1ccccc1
TGI: > 100 µM

molecule: CCOC(=O)N1C(c2ccccc2)C=CC(c2ccccc2)N1C(=O)OCC (configuration not stated)
TGI: > 100 µM

molecule: CC(=O)NC1(C(=O)N[C@@H](Cc2ccccc2)C(=O)NC2CCCCC2)Cc2ccc3ccccc3c2-c2c(ccc3ccccc23)C1
TGI: > 100 µM

molecule: O=[N+]([O-])c1ccc(N2N=C(c3ccc4ccccc4c3O)CC2c2ccc(Cl)cc2)c([N+](=O)[O-])c1 (configuration not stated)
TGI: > 100 µM

molecule: CC(C)CC12CC3CCC(CNC1=O)C32C (configuration not stated)
TGI: > 100 µM

molecule: Cc1cc(N(CCC#N)CCC#N)ccc1/C=C1\SC(=S)NC1=O
TGI: > 100 µM

molecule: O=C1C(=O)N(c2nccs2)C(=O)C(=O)C1c1nc2ccccc2s1
TGI: > 100 µM

molecule: CC(=O)OC(C)(C)CCC(=O)[C@](C)(O)[C@H]1[C@H](O)C[C@@]2(C)[C@@H]3CC=C4C(C)=C(OC5OC(CO)C(O)C(O)C5O)C(=O)C[C@@H]4[C@]3(C)C(=O)C[C@]12C (some centres not stated)
TGI: > 100 µM

---

- Test system: SK-MEL-5 melanoma
- assayMethodText: NCI tumour cell line growth inhibition, 48 h
The entries below are paired with their reported TGI.

molecule: N=c1oc2ccccc2cc1-c1nc2ccccc2c(=O)[nH]1
TGI: > 100 µM
--
molecule: c1csc(-c2ccsc2-c2ccsc2)c1
TGI: > 100 µM
--
molecule: NS(=O)(=O)c1ccc(-n2ncc3c(Nc4ccccc4)ncnc32)cc1
TGI: > 100 µM

---

- Test system: 786-0 renal
- assayMethodText: NCI tumour cell line growth inhibition, 48 h
Would you mind labelling by TGI? At or over 4 µM is y, under is n.

compound: COc1cc(NC(=O)NCc2ccco2)ccc1-c1ccc(NC(=O)NCc2ccco2)cc1OC
labelValue: y

compound: Cc1ccc(C=NC23CC4CC(CC(C4)C2)C3)cc1
labelValue: y

compound: CC(=O)OCCCCn1cc(Cn2ccc(=O)n(Cc3cn(CCCCOC(C)=O)nn3)c2=O)nn1
labelValue: y

compound: NC(=O)c1ccccc1NC(=O)c1ccccc1Cl
labelValue: y

compound: Nc1nc(=O)n(C2OC(CO)C(O)C2O)c2ncc(-c3ccc(-c4ccccc4)cc3)nc12 (stereo unspecified)
labelValue: y

compound: O=C1/C(=C/c2ccccc2)NC(=S)N1CN1CCCCC1
labelValue: y

compound: O=C1c2ccccc2-c2c1c1ccc([N+](=O)[O-])cc1c(=O)n2CCCNCCO
labelValue: n

compound: Cc1ncc(C(=O)Nc2ccc(CN3CCN(C)CC3)c(C(F)(F)F)c2)cc1C#Cc1c(N)ncc2ccccc12
labelValue: n

compound: COC(=O)c1ccccc1C1=C([N+](=O)[O-])C(c2ccccc2)C(C#N)=C(N)O1 (stereo unspecified)
labelValue: y

compound: Cn1cnc2c(F)c(Nc3ccc(Br)cc3F)c(C(=O)NOCCO)cc21
labelValue: y

compound: COC(=O)[C@]12CC[C@@H](C)[C@H](C)[C@@H]1C1=CC[C@@H]3[C@@]4(C)C(C=O)=C[C@@](C)(COS(C)(=O)=O)C4[C@H](O)C[C@@]3(C)[C@]1(C)CC2 (stereo partly specified)
labelValue: n

compound: O=S(=O)(NC1=NCCN1C(=S)SN1CCn2c1nsc2=S)c1ccccc1Cl
labelValue: y

compound: O=C(NC1C2CC3CC(C2)CC1C3)/C(Cl)=C1/Sc2ccccc2NC1=O (stereo unspecified)
labelValue: y

compound: COc1ccc2c(c1)c(-c1ccc(-c3cn(C)c4ccc(OC)cc34)[nH]1)cn2C
labelValue: y

compound: NCc1c(C(N)=O)ncn1Cc1ccccc1
labelValue: y

compound: CC(C)C[C@H](NC(=O)[C@H](Cc1cccc2ccccc12)NS(=O)(=O)c1cccc2cccnc12)B(O)O
labelValue: y

compound: CCN(CC)CCn1c2ccc(OC)cc2c2sc3cc(OC)ccc3c(=O)c21
labelValue: n

compound: CCC1(NC(=O)c2cc(F)c(F)c(F)c2F)C(=O)NC(=O)N(C(C)C)C1=O (stereo unspecified)
labelValue: y

compound: COC(=O)c1cccc(OC)c1C#Cc1c(OC)cccc1OC
labelValue: y

compound: N#Cc1ccc(Oc2cccc(Oc3ccccc3)c2)cc1C#N
labelValue: y

compound: COc1cc2c3c(n(CCCBr)c(=O)c2cc1OC)-c1ccc(F)cc1C3=O
labelValue: y

compound: CC1[C@@H]2CC=C3[C@H]4CCC5Cc6nc7c(nc6C[C@@]5(C)C4(O)CC(=O)[C@]32CO[C@]12OC(C)(C)CC2O)CC1CC[C@@H]2C3=C[C@H]4O[C@@]5(O[C@@](C)(CO)C[C@@H]5O)C(C)[C@@]4(O)[C@]3(C)[C@@H](O)CC2[C@]1(C)C7 (stereo partly specified)
labelValue: n

compound: COc1ccc2c(c1)CCN1CCCc3ccccc3C21 (stereo unspecified)
labelValue: y

compound: C=C1CCCC2[C@](C)(CC3=C(O)C(=O)C=C(OC)C3=O)[C@@H](C)CC[C@]12C (stereo partly specified)
labelValue: y

compound: O=C(N/N=C(/COc1ccccc1Cl)N=Cc1ccncc1)c1ccncc1
labelValue: y
